Value source: patent US4871744A

# ED50 values compiled below
system: von Bezold-Jarisch reflex evoked by 5-HT; experiment: Antagonism of the von Bezold-Jarisch reflex evoked by 5-HT in the anaesthetised rat; type: in vivo; settings: Rattus norvegicus, iv; urethane-anaesthetised male rats; 5-HT-evoked changes in heart rate; 5-HT usually 6 μg/kg i.v.; read-out: ED50 (concentration required to reduce the 5HT-evoked response to 50% of the control response)
Structures can show the parent of a compound that is named as a salt.
outcomeMeasure: ED50 (µg/kg)

>  <compound>
Cc1cn(C(=O)N[C@H]2C[C@H]3CC[C@@H](C2)N3C)c2ccccc12 [Example 6, hydrochloride]

>  <outcomeMeasure>
ED50

>  <censorSymbol>
=

>  <val>
1.6

$$$$
>  <compound>
CC1CN(C(=O)N[C@H]2C[C@H]3CC[C@@H](C2)N3C)c2ccccc21 (some centres unmarked) [Example 4, hydrochloride]

>  <outcomeMeasure>
ED50

>  <censorSymbol>
=

>  <val>
3

$$$$
>  <compound>
CC1Cc2ccccc2N1C(=O)N[C@H]1C[C@H]2CC[C@@H](C1)N2C (some centres unmarked) [Example 19, hydrochloride]

>  <outcomeMeasure>
ED50

>  <censorSymbol>
=

>  <val>
0.79

$$$$
>  <compound>
CN1[C@@H]2CC[C@H]1C[C@@H](NC(=O)N1CC(C)(C)c3ccccc31)C2

>  <outcomeMeasure>
ED50

>  <censorSymbol>
=

>  <val>
0.58

$$$$
>  <compound>
CN1[C@@H]2CCC[C@H]1C[C@@H](NC(=O)N1CCc3ccccc31)C2

>  <outcomeMeasure>
ED50

>  <censorSymbol>
=

>  <val>
12.5

$$$$
>  <compound>
CN1[C@@H]2CC[C@H]1C[C@@H](NC(=O)N1CCc3ccccc31)C2

>  <outcomeMeasure>
ED50

>  <censorSymbol>
=

>  <val>
1.4

$$$$
>  <compound>
CN1[C@@H]2CC[C@H]1C[C@@H](NC(=O)N1CCc3cc(F)ccc31)C2 [Example 8, hydrochloride]

>  <outcomeMeasure>
ED50

>  <censorSymbol>
=

>  <val>
17

$$$$
>  <compound>
CCN1[C@@H]2CC[C@H]1C[C@@H](NC(=O)N1CCc3ccccc31)C2

>  <outcomeMeasure>
ED50

>  <censorSymbol>
>

>  <val>
10

$$$$
